tested on: Tov112D; test: Primary qHTS to identify gynecologic anti-cancer compounds using libraries of approved drugs and bioactive compounds (AID 1345084); settings: Gynecologic cancer cell panel viability, ATPlite luminescence, 48 h; series mostly up to 57.5 µM; further: nearly all actives have a fitted effect of over 55% in size
Results filed as inconclusive are left out. The source made the active and inactive calls. The call rests on the fitted dose curve; in most records, active means well fitted cell-killing curve with a large enough effect; inconclusive means small, poorly fitted or top-dose-only effect, or effect the other way; inactive means flat fitted curve, though single readings scatter.
In this exercise, the only acceptable responses are 1.0 (active), 0.0 (inactive)

Some entries whose results are on file:
CCC[C@H]1C[C@H](C(=O)N[C@@H]([C@@H]2O[C@@H](SC)[C@@H](O)[C@@H](O)[C@@H]2O)[C@H](C)Cl)N(C)C1
0.0
c1cncc(CN2CCC(n3ncc4c(N5CCOCC5)nc(-c5ccc6[nH]ccc6c5)nc43)CC2)c1
1.0
CCc1nc(-c2cccc(C)c2)c(-c2ccnc(NC(=O)c3ccccc3)c2)s1
0.0
CC(C)(N)c1ccc(-c2nc3ccccc3nc2-c2ccccc2)cc1
0.0
CC(C)c1cc(C(C)C)c(CC(=O)NS(=O)(=O)Oc2c(C(C)C)cccc2C(C)C)c(C(C)C)c1
0.0

Which outcome was entered for the molecule N[C@H]1CN(c2c(F)cc3c(=O)c(C(=O)O)cn(C4C[C@@H]4F)c3c2Cl)CC12CC2 (stereo partly drawn) in this test?
0.0

Same thing, different molecule: CN1CCc2c(c3ccccc3n2Cc2ccc(C(=O)NO)cc2)C1
0.0

Cool, now C[N+]1(C)[C@@H]2C[C@@H](OC(=O)C(O)(c3cccs3)c3cccs3)C[C@H]1[C@@H]1O[C@@H]12
0.0

Consider next the molecule CC(C)n1cnc2c(NCCc3ccc(O)cc3)nc(-c3csc4ccccc34)nc21 in the same way.
0.0

Then what about the molecule C[C@H](O)[C@@H]1C(=O)N2C(C(=O)O)=C(S[C@@H]3CN[C@H](CNS(N)(=O)=O)C3)[C@@H](C)[C@@H]12 ?
0.0

Try the molecule Cc1ncc(-c2ccnc(Nc3ccc(S(C)(=O)=O)cc3)n2)n1C(C)C
1.0

Same again, this time with CCN(CC)Cc1ccc2cc(COC(=O)Nc3ccc(C(=O)NO)cc3)ccc2c1
1.0

Lookup CCOc1cc2c(c(F)c1OCC)C(=N)N(CC(=O)c1cc(N3CCOCC3)c(OC)c(C(C)(C)C)c1)C2
0.0

Same lookup for Cn1cnc2c(F)c(Nc3ccc(Br)cc3F)c(C(=O)NOCCO)cc21 , please.
0.0

* * *

experiment: Quantitative High-Throughput drug screen in 47 multiple myeloma cell lines against the NCATS MIPE library collection: ARP1_JJKsccF8 cell viability assay (AID 1918928; further: nearly all actives have a fitted effect of over 40% in size;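 on viability: 100% = DMSO only wells and 0% = medium only wells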); details: ARP1 myeloma cells viability, CellTiter-Glo ATP, 48 h; series mostly up to 45.8 µM
Records with an inconclusive call do not appear. The source made the active and inactive calls. Calls come from the whole dose curve; as a rule, active = well fitted cell-killing curve with a large enough effect; inconclusive = small, poorly fitted or top-dose-only effect, or effect the other way; inactive = no such curve, though single readings can be large or run the other way.
Log the outcome using a class from active, inactive

Previously resolved entries follow.
CN(C)c1ccc2cc(C(=O)N[C@@H](CCCN=C(N)CCl)C(=O)NCc3ccccc3)ccc2c1
active
CC[C@]12C=CCN3CC[C@@]4(c5cc([C@@]6(C(=O)OC)C[C@H]7C[C@@H](C(C)(F)F)CN(Cc8c6[nH]c6ccccc86)C7)c(OC)cc5N(C)[C@H]4[C@@](O)(C(=O)OC)[C@H]1OC(C)=O)[C@@H]32
active
CN1C(C(=O)Nc2ccccn2)=C(O)c2sc(Cl)cc2S1(=O)=O
active
CC(C)N1[N]C(=C2C=c3cc(O)ccc3=N2)c2c(N)ncnc21
active
O=C(O)c1ccc(Nc2ncc3c(n2)-c2ccc(Cl)cc2C(c2c(F)cccc2F)=NC3)cc1
active

What outcome does the record of this test show for COc1ccc(C=Cc2cc(OC)c(OC)c(OC)c2)cc1NC(=O)[C@H](N)CO ?
active

Consider next the molecule O=C(NNC(=O)c1ccc(CNS(=O)(=O)c2ccc(F)c(Cl)c2)cc1)c1ccccc1 in the same way.
inactive

Ok, now C#Cc1cccc(Nc2ncnc3cc(OCCOC)c(OCCO)cc23)c1
active

// next record CC(=O)OCC(=O)[C@@]12N=C(C)O[C@H]1C[C@H]1[C@@H]3CCC4=CC(=O)C=C[C@]4(C)[C@@H]3[C@@H](O)C[C@@]12C
inactive

Same for Cn1cnc2c(F)c(Nc3ccc(Br)cc3F)c(C(=O)NOCCO)cc21
inactive

* * *

# Potency per record follows
experiment: qHTS of pediatric cancer cell lines to identify multiple opportunities for drug repurposing: Confirmatory screen for TC32 cells (AID 1347118); settings: TC32 Ewing sarcoma cells viability qHTS; series mostly up to 45.9 µM;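 further: potency means the concentration at half of the fitted maximal effect; cells exposed to compound for 48 h before the read; nearly all actives have a fitted effect of over 65% in size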
Records with an inconclusive call do not appear. The source made the active and inactive calls. The call rests on the fitted dose curve; in most records, active means well fitted cell-killing curve with a large enough effect; inconclusive means small, poorly fitted or top-dose-only effect; inactive means no such curve, though single readings can be large or run the other way.

Cc1cc(Nc2ncc3c(n2)N(C)C(=O)N(c2cc(NC(=O)c4cccc(C(F)(F)F)c4)ccc2C)C3)n(C)n1
329 nM (active)
COc1ccc2c(c1OC)C(=O)OC2[C@H]1c2c(cc3c(c2OC)OCO3)CCN1C (stereo partly drawn)
2930 nM (active)
CC(C)(O)Cn1c(NC(=O)c2ccc(-c3cn[nH]c3)s2)nc2cc(CN3CCOCC3)ccc21
1310 nM (active)
C[C@@]12C(=O)OC(=O)[C@@]1(C)C1CCC2O1
3690 nM (active)
C=CC(=O)Nc1cccc(Nc2nc(NC3CCC(N(C)C)CC3)nc3c2ncn3C(C)C)c1 (stereo not drawn)
657 nM (active)
C[C@@H](Oc1ccc2[nH]nc(C=Cc3cnn(CCO)c3)c2c1)c1c(Cl)cncc1Cl
2330 nM (active)

Any idea what its Potency is? The molecule is CC[C@@]1([C@@H]2O[C@@H]([C@H]3O[C@@](O)(CO)[C@H](C)C[C@H]3C)C[C@H]2C)CC[C@H]([C@]2(C)CC[C@]3(C[C@H](O)[C@@H](C)[C@@H]([C@@H](C)[C@@H](OC)[C@H](C)C(=O)O)O3)O2)O1
288 nM (active)

Record: COC1=C2C[C@@H](C)C[C@H](OC)[C@@H](O)[C@@H](C)C=C(C)[C@H](OC(N)=O)[C@@H](OC)C=CC=C(C)C(=O)NC(=CC1=O)C2=O
928 nM (active)

* * *

assay: Quantitative High-Throughput drug screen in 47 multiple myeloma cell lines against the NCATS MIPE library collection: FR4_PLB cell viability assay (AID 1918924; further: nearly all actives have a fitted effect of over 35% in size); settings: FR4_PLB myeloma cells viability, CellTiter-Glo ATP, 48 h; series mostly up to 45.8 µM
Results filed as inconclusive are left out. Calls of active or inactive are those of the source. Calls come from the whole dose curve; as a rule, active = well fitted cell-killing curve with a large enough effect; inconclusive = small, poorly fitted or top-dose-only effect, or effect the other way; inactive = no such curve, though single readings can be large or run the other way.
Entry note: the call must match one of active, inactive

Completed entries (count: 2):
CC[C@@]1([C@@H]2O[C@@H]([C@H]3O[C@@](O)(CO)[C@H](C)C[C@H]3C)C[C@H]2C)CC[C@H]([C@]2(C)CC[C@]3(C[C@H](O)[C@@H](C)[C@@H]([C@@H](C)[C@@H](OC)[C@H](C)C(=O)O)O3)O2)O1
active
CO[C@@H]1[C@@H](O)[C@H](O)[C@@H](n2c3c(Cl)cccc3c3c4c(c5c6cccc(Cl)c6[nH]c5c32)C(=O)NC4=O)O[C@@H]1CO
active

Recorded test outcome, item O=C(C[C@@H]1CC=CCCC(=O)O[C@H](c2ccccc2)CNC1=O)NCc1ccc(Cl)cc1
active

Proceed to CN(C)CC[C@H](c1ccc(Cl)cc1)c1ccccn1
inactive

* * *

Assay: qHTS of pediatric cancer cell lines to identify multiple opportunities for drug repurposing: Primary screen for RD cells (AID 1347104); further: nearly all actives have a fitted effect of over 55% in size; further: potency means the concentration at half of the fitted maximal effect
Settings: RD rhabdomyosarcoma viability, CellTiter-Glo luminescence, 48 h; series mostly up to 46 µM
Description: Drug repurposing or repositioning has been offered as a strategy for drug development in oncology programs. This approach has special potential for childhood cancers and other rare or orphan diseases, where the expected return on new drug development has been a disincentive to pharmaceuticals. […] We employed a titration-based paradigm (quantitative high-throughput screening or qHTS), where all compounds were tested at multiple concentrations for their effect on cell viability. […]
Results filed as inconclusive are left out. Activity calls are given as the source filed them. The call rests on the fitted dose curve; in most records, active means well fitted cell-killing curve with a large enough effect; inconclusive means small, poorly fitted or top-dose-only effect; inactive means flat fitted curve, though single readings scatter.
Experimental endpoint: Potency

Cc1cn([C@@H]2O[C@H](CO)[C@@H](O)[C@H]2F)c(=O)[nH]c1=O
inactive
O=C(Nc1cccc(Nc2ncc(Br)c(NCCc3cnc[nH]3)n2)c1)N1CCCC1
16.6 µM (active)
CC[C@]12C=CCN3CC[C@@]4(c5cc([C@@]6(C(=O)OC)C[C@H]7C[C@@H](C(C)(F)F)CN(Cc8c6[nH]c6ccccc86)C7)c(OC)cc5N(C)[C@H]4[C@@](O)(C(=O)OC)[C@H]1OC(C)=O)[C@@H]32
0.0059 µM (active)
CC(C)(O)Cn1c(NC(=O)c2ccc(-c3cn[nH]c3)s2)nc2cc(CN3CCOCC3)ccc21
1.87 µM (active)
NC(=O)N1CCC(CC(=O)N2CCC([C@H]3c4ncc(Br)cc4CCc4cc(Cl)cc(Br)c43)CC2)CC1
20.9 µM (active)

Recorded Potency of CC(O)(C#Cc1ccc2c(c1)N(c1nc(N)ncc1Cl)CC2)c1nccs1 (configuration not stated) , please.
18.7 µM (active)

Let us now turn to NC[C@H]1O[C@H](O[C@H]2[C@@H](O)[C@@H](O[C@H]3O[C@H](CO)[C@@H](O)[C@H](N)[C@@H]3O)[C@H](N)C[C@@H]2N)[C@H](N)C[C@H]1O
inactive

Source of measurements: PubChem BioAssay (NCATS)
